Would you kindly list IC50 for each of these compounds?

Field IC50 (system: UniProt P07711) for entry NC(=S)N/N=C1\CCSc2c(OC(F)(F)F)cccc21 = > 10 µM

Entry Cc1ccc2c(c1)/C(=N/NC(N)=S)CCS2 ; assay system UniProt P07711; IC50 recorded at 0.214 µM

Readout IC50 for NC(=S)N/N=C1\CCSc2ccc(Cl)cc21 , test system UniProt P07711, was 0.228 µM

Test item NC(=S)N/N=C1\CCS(=O)(=O)c2ccc(Cl)cc21 ; UniProt P07711; reported IC50 was > 10 µM

The measured IC50 that NC(=S)N/N=C1\CCSc2ccc(O)cc21 showed for UniProt P07711 is > 10 µM

The compound CC(=O)Nc1ccc2c(c1)/C(=N/NC(N)=S)CCS2(=O)=O on UniProt P07711: IC50 was > 10 µM

Tested system UniProt P07711; IC50 recorded for NC(=S)N/N=C1\CCSc2ccc(F)cc21 was 0.741 µM

The reported IC50 value, UniProt P07711, for NC(=S)N/N=C1\CCS(=O)(=O)c2ccc(F)cc21 reads > 10 µM

Sample CC(C)c1ccc2c(c1)/C(=N/NC(N)=S)CCS2(=O)=O , system: UniProt P07711. Its IC50 is > 10 µM

Sample NC(=S)N/N=C1\CCSc2c(Br)cc(F)cc21 , system: UniProt P07711. Its IC50 is > 10 µM

Sample NC(=S)N/N=C1\CCSc2ccc3ccccc3c21 , system: UniProt P07711. Its IC50 is > 10 µM

The observed IC50 for NC(=S)N/N=C1\CCSc2ccc(OC(F)(F)F)cc21 when tested with UniProt P07711 stands at 0.256 µM

I looked up CC(C)c1ccc2c(c1)/C(=N/NC(N)=S)CCS2 and its IC50 for UniProt P07711 was > 10 µM

Field IC50 (UniProt P07711), entry NC(=S)N/N=C1\CCS(=O)(=O)c2ccc(C(F)(F)F)cc21 : 0.26 µM

Summary line: COc1ccc2c(c1)/C(=N/NC(N)=S)CCS2(=O)=O , UniProt P07711, reported IC50 = > 10 µM

Bench note, UniProt P07711: entry NC(=S)N/N=C1\CCSc2c(F)cc(F)cc21 , its IC50 = 1.5 µM
